# assay-system: HIV-1 Env of isolate MGRM-G-015 (subtype G), on pseudovirus (HIV-1)
# protocol-summary: cell-based or functional assay
endpoint-label: IC50 (µg/mL), neutralization of pseudovirus

[[record]]
binder = "PGT-126 (antibody, V domains shown) VH: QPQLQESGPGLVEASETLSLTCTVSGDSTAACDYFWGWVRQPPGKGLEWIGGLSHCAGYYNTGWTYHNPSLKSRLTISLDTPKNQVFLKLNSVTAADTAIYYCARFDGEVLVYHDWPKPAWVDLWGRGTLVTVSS VL: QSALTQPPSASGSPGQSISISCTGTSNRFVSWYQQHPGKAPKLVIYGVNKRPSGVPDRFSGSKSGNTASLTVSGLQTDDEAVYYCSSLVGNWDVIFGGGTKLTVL"
result = "> 50 µg/mL"

[[record]]
binder = "PGT-131 (antibody, V domains shown) VH: QVQLQESGPGLVKPSETLSLTCTVSGDSINTGHHYWGWVRQVPGKGPEWIAHIHYNTAVLHNPALKSRVTISIFTLKNLITLSLSNVTAADTAVYFCVRSGGDILYYIEWQKPHWFYPWGPGILVTVSS VL: QSALTQPPSASGSLGQSLTISCSGTGSDIGSWNFVSWYQQFPGRAPNLIIFEVNRRRSGVPDRFSGSKSGNTASLTVSGLRSEDEAEYFCSSLSGRWDIVFGGGTKVTVL"
result = "> 50 µg/mL"

[[record]]
binder = "PGT-135 (antibody, V domains shown) VH: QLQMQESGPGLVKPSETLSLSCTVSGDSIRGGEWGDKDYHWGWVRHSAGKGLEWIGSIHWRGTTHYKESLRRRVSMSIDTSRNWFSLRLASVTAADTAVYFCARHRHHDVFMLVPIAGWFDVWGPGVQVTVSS VL: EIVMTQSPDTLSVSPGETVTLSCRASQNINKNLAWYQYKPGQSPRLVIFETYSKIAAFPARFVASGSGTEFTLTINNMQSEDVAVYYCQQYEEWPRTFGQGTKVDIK"
result = "> 50 µg/mL"

[[record]]
binder = "PGT-125 (antibody, V domains shown) VH: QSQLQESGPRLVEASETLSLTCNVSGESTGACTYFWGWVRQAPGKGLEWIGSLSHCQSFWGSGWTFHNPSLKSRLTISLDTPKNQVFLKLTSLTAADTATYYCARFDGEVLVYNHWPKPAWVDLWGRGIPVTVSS VL: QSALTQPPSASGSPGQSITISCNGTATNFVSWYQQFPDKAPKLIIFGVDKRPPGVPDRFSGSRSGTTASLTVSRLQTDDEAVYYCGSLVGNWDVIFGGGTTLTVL"
result = "> 50 µg/mL"

[[record]]
binder = "PGT-127 (antibody, V domains shown) VH: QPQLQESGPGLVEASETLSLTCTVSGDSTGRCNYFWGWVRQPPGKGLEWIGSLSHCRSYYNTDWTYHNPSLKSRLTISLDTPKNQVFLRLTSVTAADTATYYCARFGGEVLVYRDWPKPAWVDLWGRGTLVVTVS VL: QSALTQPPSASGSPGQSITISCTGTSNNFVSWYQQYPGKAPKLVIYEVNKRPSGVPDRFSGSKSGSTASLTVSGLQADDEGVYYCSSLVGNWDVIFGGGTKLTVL"
result = "> 50 µg/mL"

[[record]]
binder = "PGT-123 (antibody, V domains shown) VH: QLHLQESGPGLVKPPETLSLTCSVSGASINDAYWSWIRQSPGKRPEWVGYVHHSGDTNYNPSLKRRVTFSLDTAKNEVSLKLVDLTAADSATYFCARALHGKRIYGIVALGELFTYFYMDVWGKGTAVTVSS VL: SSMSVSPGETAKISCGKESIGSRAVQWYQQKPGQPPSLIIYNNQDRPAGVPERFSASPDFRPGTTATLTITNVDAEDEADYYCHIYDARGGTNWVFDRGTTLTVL"
result = "> 50 µg/mL"

[[record]]
binder = "PGT-137 (antibody, V domains shown) VH: EVHLEESGPGLVRPSETLSLTCTASGGSIRGGEWGDSDYHWGWVRHSPEKGLEWIGSIHWRGTTHYNAPFRGRGRLSIDLSRNQFSLRLTSVTAEDTAVYYCVKHKYHDIVMVVPIAGWFDPWGQGLQVTVSS VL: EIMMTQSPAILSVSPGDRATLSCRASQSVKNNLAWYQKRPGQAPRLLIFDTSSRASGIPARFSGGGSGTEFTLTVNSMQSEDFATYYCQQYEEWPRTFGQGTKVEIK"
result = "> 50 µg/mL"

[[record]]
binder = "PGT-136 (antibody, V domains shown) VH: QLQLQESGPGLVKPSETLSLTCTVSGGSMRGTDWGENDFHYGWIRQSSAKGLEWIGSIHWRGRTTHYKTSFRSRATLSIDTSNNRFSLTFSFVTAADTAVYYCARHKYHDIFRVVPVAGWFDPWGQGLLVTVSS VL: EIVMTQSPPTLSVSPGETATLSCRASQNVKNNLAWYQLKPGQAPRLLIFDASSRAGGIPDRFSGSGYGTDFTLTVNSVQSEDFGDYFCQQYEEWPRTFGQGTKVDIK"
result = "> 50 µg/mL"


// for each binder in input: emit IC50 (µg/mL), neutralization of pseudovirus
1. PGT-128 (antibody, V domains shown) VH: QPQLQESGPTLVEASETLSLTCAVSGDSTAACNSFWGWVRQPPGKGLEWVGSLSHCASYWNRGWTYHNPSLKSRLTLALDTPKNLVFLKLNSVTAADTATYYCARFGGEVLRYTDWPKPAWVDLWGRGTLVTVSS VL: QSALTQPPSASGSPGQSITISCTGTSNNFVSWYQQHAGKAPKLVIYDVNKRPSGVPDRFSGSKSGNTASLTVSGLQTDDEAVYYCGSLVGNWDVIFGGGTKLTVL
2. PGT-130 (antibody, V domains shown) VH: QVQLQESGPGLVKPAETLSLTCSVSGESINTGHYYWGWVRQVPGKGLEWIGHIHYTTAVLHNPSLKSRLTIKIYTLRNQITLRLSNVTAADTAVYHCVRSGGDILYYYEWQKPHWFSPWGPGIHVTVSS VL: QSALTQPPSASGSLGQSVTISCNGTSSDIGGWNFVSWYQQFPGRAPRLIIFEVNKRPSGVPGRFSGSKSGNSASLTVSGLQSDDEGQYFCSSLFGRWDVVFGGGTKLTVL

> 50 µg/mL
> 50 µg/mL
